Test system: Morningglory
Experiment: Pre-emergence herbicide test
Type: in vivo
Conditions: Ipomoea, 1.12 kg/ha, read-out: % plant inhibition (Mogl)
Procedure: The tests for pre-emergence herbicide activity are conducted as follows: Topsoil is placed in an aluminum pan and compacted to a depth of 0.95 to 1.27 cm from the top of the pan. […] Approximately 10-14 days (usually 11 days) after seeding and treating, the pans are observed and the results (% inhibition) are recorded. […]

COMPOUND	inhibition at 1120 g/ha / %
CCOC(=O)CON=Cc1cc(-c2nn(C)c(C(F)(F)F)c2Cl)c(F)cc1Cl	100
C#CCOc1cc(-c2c(Cl)c(C(F)(F)F)nn2C)c(F)cc1Cl	40
COc1cc(-c2c(Cl)c(C(F)(F)F)nn2C)c(F)cc1Cl	50
Cn1nc(-c2cc(COCCF)c(Cl)cc2F)c(Cl)c1C(F)(F)F	90
Cn1nc(-c2cc(S)c(Cl)cc2Cl)c(Cl)c1C(F)(F)F	30
CCOC(=O)C(C)Oc1cc(-c2nn(C)c(C(F)(F)F)c2Cl)c(F)cc1Cl (centres unmarked)	100
CC(C)OC(=O)c1cc(-c2nn(C)c(C(F)(F)F)c2Cl)c(F)cc1Cl	90
Cn1nc(-c2cc(OCC(=O)O)c(Cl)cc2F)c(Cl)c1C(F)(F)F	100
Cn1nc(-c2cc(O)c(Br)cc2F)c(Cl)c1C(F)(F)F	40
C#CCOCc1cc(-c2nn(C)c(C(F)(F)F)c2Cl)c(F)cc1Cl	80
Cn1nc(-c2cc(CCl)c(Cl)cc2F)c(Cl)c1C(F)(F)F	70
COC(=O)C=Cc1cc(-c2nn(C)c(C(F)(F)F)c2Cl)c(F)cc1Cl	80
Cn1nc(-c2cc(OCC(=O)OC(C)(C)C)c(Cl)cc2F)c(Cl)c1C(F)(F)F	70
Cn1nc(-c2cc(NS(C)(=O)=O)c(Cl)cc2Cl)c(Cl)c1C(F)(F)F	90
COCCOCc1cc(-c2nn(C)c(C(F)(F)F)c2Cl)c(F)cc1Cl	90
Cn1nc(-c2cc(C=NOCC(N)=O)c(Cl)cc2F)c(Cl)c1C(F)(F)F	100
CCOC(=O)c1cc(-c2nn(C)c(C(F)(F)F)c2Cl)c(F)cc1Cl	100
C#CCOc1cc(-c2nn(C)c(C(F)(F)F)c2Cl)c(F)cc1Br	100
Cn1nc(-c2cc(C=O)c(Cl)cc2F)c(Cl)c1C(F)(F)F	70
Cn1nc(-c2cc(CC#N)c(Cl)cc2F)c(Cl)c1C(F)(F)F	80
CC(C#N)c1cc(-c2nn(C)c(C(F)(F)F)c2Cl)c(F)cc1Cl (centres unmarked)	60
CCOCc1cc(-c2nn(C)c(C(F)(F)F)c2Cl)c(F)cc1Cl	100
Cn1nc(-c2cc(OCc3ccc(Cl)s3)c(Cl)cc2F)c(Cl)c1C(F)(F)F	40
CC(C)CCOC(=O)COc1cc(-c2nn(C)c(C(F)(F)F)c2Cl)c(F)cc1Cl	100
CCOC(=O)CSCc1cc(-c2nn(C)c(C(F)(F)F)c2Cl)c(F)cc1Cl	100
Cn1nc(-c2cc(C3OCCO3)c(Cl)cc2F)c(Cl)c1C(F)(F)F	80
Cn1nc(-c2cc(O)c(Cl)cc2F)c(Cl)c1C(F)(F)Cl	70
CCOC(=O)C(C)Oc1cc(-c2nn(C)c(C(F)(F)F)c2Cl)c(F)cc1Br (centres unmarked)	40
CC(C)COC(=O)c1cc(-c2nn(C)c(C(F)(F)F)c2Cl)c(F)cc1Cl	70
CCOC(=O)C(C)=Cc1cc(-c2nn(C)c(C(F)(F)F)c2Cl)c(F)cc1Cl	70
Cn1nc(-c2cc(C=NOCC(=O)O)c(Cl)cc2F)c(Cl)c1C(F)(F)F	100
CCC(C)COC(=O)COc1cc(-c2nn(C)c(C(F)(F)F)c2Cl)c(F)cc1Cl (centres unmarked)	70
Cc1cc(-c2nn(C)c(C(F)F)c2Cl)c(F)cc1Cl	100
Cn1nc(-c2cc(C(=O)OC3CCCCC3)c(Cl)cc2F)c(Cl)c1C(F)(F)F	20
COCCOc1cc(-c2nn(C)c(C(F)(F)F)c2Cl)c(F)cc1Cl	100

---

test system: Velvetleaf; experiment: Pre-emergence herbicide test; type: in vivo; conditions: Abutilon theophrasti, 11.21 kg/ha, read-out: % plant inhibition (Vele)
Please use satisfied whenever inhibition at 11210 g/ha is not below 90%, and not satisfied whenever it is.

MOLECULE	LABEL_CLASS
COc1cc(F)c(-c2c(Cl)c(C(F)(F)F)nn2C)cc1F [Compound 71]	not satisfied
Cn1nc(C(F)(F)F)c(Cl)c1-c1cc(F)ccc1F [Compound 69]	not satisfied
Cn1nc(C(F)(F)F)c(Cl)c1-c1cc([N+](=O)[O-])c(F)cc1F [Compound 77]	not satisfied
Cn1nc(-c2cc(Oc3ccc(C(F)(F)F)cc3)c(Cl)cc2F)c(Cl)c1C(F)(F)F [Compound 205]	not satisfied
Cc1cc(-c2nn(C)c(C(F)(F)F)c2Cl)c(F)cc1Cl [Compound 124]	satisfied
Cn1nc(-c2cc(Oc3ccc(C(F)(F)F)cc3Cl)c(Cl)cc2F)c(Cl)c1C(F)(F)F [Compound 203]	not satisfied
Cn1nc(-c2cc(C(Br)Br)c(Cl)cc2F)c(Cl)c1C(F)(F)F [Compound 132]	satisfied

---

Tested on: Cocklebur
Assay: Post-emergence herbicide test
Assay type: in vivo
Conditions: Xanthium strumarium, 11.21 kg/ha, read-out: % plant inhibition (Cobu)
From the text: Topsoil is placed in aluminum pans having holes in the bottom and compacted to a depth of 0.95 to 1.27 cm from the top of the pan. A predetermined number of seeds of each of several dicotyledonous and monocotyledonous annual plant species and/or vegetative propagules for the perennial plant species are placed on the soil and pressed into the soil surface. The seeds and/or vegetative propagules are covered with soil and leveled. […]
ATTRIBUTE_MEASURED: inhibition at 11210 g/ha (%)

COMPOUND	SUBJECT_OF_TEST	VALUE_UNIT	VALUE_OBSERVED
C#CCOc1cc(-c2nn(C)c(C(F)(F)F)c2Cl)c(F)cc1Cl [Compound 261]	Cocklebur	%	100
Cn1nc(-c2cc(C(Br)Br)c(Cl)cc2F)c(Cl)c1C(F)(F)F [Compound 132]	Cocklebur	%	100
CCS(=O)(=O)N(c1cc(-c2nn(C)c(C(F)(F)F)c2Cl)c(Cl)cc1Cl)S(=O)(=O)CC [Compound 90]	Cocklebur	%	30
Cc1cc(-c2c(Cl)c(C(F)F)nn2C)c(F)cc1Cl [Compound 64]	Cocklebur	%	20

---

system: Morningglory; assay: Pre-emergence herbicide test; assay type: in vivo; conditions: Ipomoea, 1.12 kg/ha, read-out: % plant inhibition (Mogl)
inhibition at 1120 g/ha by entry:

MOLECULE	VALUE_UNIT	inhibition at 1120 g/ha
CC(O)c1cc(-c2nn(C)c(C(F)(F)F)c2Cl)c(F)cc1Cl (centres unmarked)	%	100
Cn1nc(-c2cc(C3=NCCO3)c(Cl)cc2F)c(Cl)c1C(F)(F)F	%	80
CCOC(=O)CON=C(C)c1cc(-c2nn(C)c(C(F)(F)F)c2Cl)c(F)cc1Cl	%	80
COC(=O)C(C)OC(=O)c1cc(-c2nn(C)c(C(F)(F)F)c2Cl)c(F)cc1Cl (centres unmarked)	%	100
CCC(C)OC(=O)c1cc(-c2nn(C)c(C(F)(F)F)c2Cl)c(F)cc1Cl (centres unmarked)	%	80
CCS(=O)(=O)Nc1cc(-c2nn(C)c(C(F)(F)F)c2Cl)c(Cl)cc1Cl	%	80
Cn1nc(-c2cc([N+](=O)[O-])c(Cl)cc2F)c(Cl)c1C(F)F	%	0
COCOc1cc(-c2nn(C)c(C(F)(F)F)c2Cl)c(F)cc1Cl	%	100

---

System: Cocklebur
Experiment: Post-emergence herbicide test
Format: in vivo
Details: Xanthium strumarium, 11.21 kg/ha, read-out: % plant inhibition (Cobu)
Excerpt: Topsoil is placed in aluminum pans having holes in the bottom and compacted to a depth of 0.95 to 1.27 cm from the top of the pan. A predetermined number of seeds of each of several dicotyledonous and monocotyledonous annual plant species and/or vegetative propagules for the perennial plant species are placed on the soil and pressed into the soil surface. The seeds and/or vegetative propagules are covered with soil and leveled. […]
ATTRIBUTE_MEASURED: inhibition at 11210 g/ha (%)

STRUCTURE_SMILES_STRING	ATTRIBUTE_MEASURED	VALUE_UNIT	VALUE_OBSERVED
Cn1nc(C(F)(F)F)c(Cl)c1-c1cc(F)c(Cl)cc1Cl	inhibition at 11210 g/ha	%	10
Cn1nc(-c2ccc(Cl)cc2Cl)c(Cl)c1C(F)(F)F	inhibition at 11210 g/ha	%	40
COc1cc(F)c(-c2c(Cl)c(C(F)(F)F)nn2C)cc1F	inhibition at 11210 g/ha	%	30
Cn1nc(-c2cc([N+](=O)[O-])c(Cl)cc2Cl)c(Cl)c1C(F)(F)F	inhibition at 11210 g/ha	%	70
COc1cc(-c2c(Cl)c(C(F)(F)F)nn2C)c(F)cc1N	inhibition at 11210 g/ha	%	10
